# measurement_protocol: HEK293 cellular growth inhibition assay (CellTiter-Glo)
# Type: cell-based
# condition_parameters: human, HEK293 cells, 7 days of incubation
Reported values of CC50 at 7 days for individual entries

Cc1c(CN2CCC3(CC2)CN(c2ncnc4ccc(CC(F)(F)F)cc24)C3)ccc2c1cc(C#N)n2CC1CCNC(=O)CO1 (stereo not drawn) | 2 to 5 µM
Cc1c(CN2CCC3(CC2)CN(c2cnnc4ccc(CC(F)(F)F)cc24)C3)ccc2c1cc(C#N)n2CC(C)N1CCN(S(C)(=O)=O)CC1 (stereo not drawn) | 5 to 10 µM

Now consider a different molecule.
Look up and report measured CC50 at 7 days for this entry: Cc1c(CN2CCC3(CC2)CN(c2ncnc4ccc(CC(F)(F)F)cc24)C3)ccc2c1cc(C#N)n2CC1CCC(=O)NC1 (stereo not drawn)
≤ 2 µM
